Tested on: Es-2
assay: Primary qHTS to identify gynecologic anti-cancer compounds using libraries of approved drugs and bioactive compounds (AID 1345084); further: on the % scale 0 is the no-effect control and ±100 the full control effect; nearly all actives have a fitted effect of over 55% in size
condition_description: Gynecologic cancer cell panel viability, ATPlite luminescence, 48 h; series mostly up to 57.5 µM
Records with an inconclusive call do not appear. Active and inactive are the calls of the source. The call rests on the fitted dose curve; in most records, active means well fitted cell-killing curve with a large enough effect; inconclusive means small, poorly fitted or top-dose-only effect, or effect the other way; inactive means flat fitted curve, though single readings scatter.
quantity_kind: activity change, negative = cytotoxicity

Illustrative cases are given below, each with its answer.
Query COC(=O)[C@]1(C)CCC[C@@]2(C)[C@@H]3CC[C@@H]4C[C@@]3(CC[C@@H]21)C[C@H]4C(=O)O yields activity change, negative = cytotoxicity of inactive

Query O=C1C(Cl)=C(N2CCOCC2)C(=O)N1c1ccc(Cl)c(Cl)c1 yields activity change, negative = cytotoxicity of inactive

Query CC1(C)CC[C@]2(C(=O)O)CC[C@]3(C)C(=CCC4[C@@]5(C)CC[C@H](O[C@H]6O[C@H](C(=O)O)[C@@H](O)[C@H](O[C@@H]7O[C@H](CO)[C@H](O)[C@H](O)[C@H]7O)[C@H]6O)C(C)(C)C5CC[C@]43C)[C@@H]2C1 (stereo not given in full) yields activity change, negative = cytotoxicity of 0.636% [at 11.6 µM] (inactive)

Query NC(=O)[C@H](Cc1ccccc1)NC(=O)[C@H](CCCN=C(N)N)NC(=O)C12CC3CC(CC(C3)C1)C2 yields activity change, negative = cytotoxicity of 7.15% [at 11.6 µM] (inactive)

Query Cc1cccc(-c2nn3c(c2-c2ccnc4ccc(C(N)=O)cc24)CCC3)n1 yields activity change, negative = cytotoxicity of inactive

Continuing:
Query CCCCOc1nc(N)c2c(n1)N(Cc1cccc(CN3CCCC3)c1)CC(=O)N2 yields activity change, negative = cytotoxicity of inactive

Query CC(C)=CCc1c(O)cc2oc3cc(C)cc(O)c3c2c1C yields activity change, negative = cytotoxicity of inactive

Query C=C1CC[C@]2(C(=O)O[C@@H]3O[C@H](CO)[C@@H](O)[C@H](O)[C@H]3O)CC[C@]3(C)C(=CCC4[C@@]5(C)C[C@H](O)[C@@H](O[C@@H]6O[C@H](C(=O)O)[C@@H](O)[C@H](O)[C@H]6O)[C@](C)(C=O)C5CC[C@]43C)C2C1 (stereo not given in full) yields activity change, negative = cytotoxicity of 1.14% [at 11.6 µM] (inactive)

Query O=C(Cc1ccccc1)OC[C@H]1O[C@H](O[C@H]2O[C@H](CO)[C@@H](O)[C@H](O)[C@H]2O)[C@H](O)[C@@H](O)[C@@H]1O yields activity change, negative = cytotoxicity of inactive

Query CO[C@@H]1[C@]2(O)C(=O)N3/C=C\C(C)(C)c4[nH]c5ccccc5c4/C=C\3C(=O)N2[C@]23[C@H](CO)C(C)(C)N2c2ccccc2[C@]13O yields activity change, negative = cytotoxicity of inactive

Query C/C=C(/C)C(=O)OC1C(OC(C)=O)C23C(O)OC4(CCC5C6(C)CCC(OC7OC(C(=O)O)C(O)C(OC8OC(CO)C(O)C(O)C8OC8OC(C)C(O)C(O)C8OC8OCC(O)C(O)C8O)C7OC7OC(CO)C(O)C(O)C7O)C(C)(C)C6CCC5(C)C4(C)CC2OC(C)=O)C3CC1(C)C (stereo not given) yields activity change, negative = cytotoxicity of 1.17% [at 6.55 µM] (inactive)

Query CC(O)C/C=C/C=C/C(=O)OC1C=C2COC(=O)C2(O)C2(C)CCCC(C)(C)C12 (stereo not given) yields activity change, negative = cytotoxicity of inactive

Query CC(C)(OC1OC(CO)C(O)C(O)C1O)C1CCC(O)(CO)C2CC(=O)C(C)(O)C2C1 (stereo not given) yields activity change, negative = cytotoxicity of inactive

Query C=C1[C@@H]2CC[C@@]3(C)[C@H](c4ccoc4)OC(=O)C[C@]13O[C@H]1CC(=O)C(C)(C)[C@H](C(O)C(=O)OC)[C@]12C (stereo not given in full) yields activity change, negative = cytotoxicity of inactive

Query COc1ccc(C2(O)c3ccccc3NC(=O)C2OC)cc1 (stereo not given) yields activity change, negative = cytotoxicity of inactive

* * *

Test system: CASKI
assay: Primary qHTS to identify gynecologic anti-cancer compounds using libraries of approved drugs and bioactive compounds (AID 1345084); further: on the % scale 0 is the no-effect control and ±100 the full control effect; nearly all actives have a fitted effect of over 55% in size
condition_description: Gynecologic cancer cell panel viability, ATPlite luminescence, 48 h; series mostly up to 57.5 µM
Inconclusive results are not listed. Activity calls are given as the source filed them. The call rests on the fitted dose curve; in most records, active means well fitted cell-killing curve with a large enough effect; inconclusive means small, poorly fitted or top-dose-only effect, or effect the other way; inactive means flat fitted curve, though single readings scatter.
quantity_kind: activity change, negative = cytotoxicity

Illustrative cases are given below, each with its answer.
Query C[C@@H]1O[C@@H](O[C@H]2[C@H](O[C@H]3[C@H](O[C@H]4CC[C@@]5(C)C(CC[C@]6(C)C5CC=C5[C@@H]7CC(C)(C)C[C@@H](O)[C@]7(C)CC[C@]56C)[C@@]4(C)CO)O[C@H](C(=O)O)[C@@H](O)[C@@H]3O)O[C@H](C(=O)O)[C@H](O)[C@@H]2O)[C@H](O)[C@H](O)[C@H]1O (stereo partly drawn) yields activity change, negative = cytotoxicity of 16.2% [at 11.6 µM] (inactive)

Query CCC(C)/C=C(C)/C=C/C(=O)C1CCC(O)C(C)(O)C1=O (stereo not drawn) yields activity change, negative = cytotoxicity of inactive

Query CC(=O)/C=C/C1(O)C(C)=CC(=O)CC1(C)C (stereo not drawn) yields activity change, negative = cytotoxicity of inactive

Query COc1cc(O)c2c(c1Cl)CC(C)OC2=O (stereo not drawn) yields activity change, negative = cytotoxicity of inactive

Continuing:
Query C[C@@H]1O[C@@H](O[C@@H]2[C@@H](O)[C@H](O[C@@H]3[C@@H](O)[C@@H](O)[C@H](O[C@H]4[C@H](OC(=O)[C@]56CCC(C)(C)C[C@H]5C5=CCC7[C@@]8(C)C[C@H](O)[C@H](O[C@@H]9O[C@H](C(=O)O)[C@@H](O)[C@H](O)[C@H]9O)[C@@](C)(CO)C8[C@H](O)C[C@@]7(C)[C@]5(C)C[C@H]6O)O[C@@H](CO)[C@@H]4O)O[C@H]3C)OC[C@H]2O)[C@H](O)[C@H](O)[C@H]1O (stereo partly drawn) yields activity change, negative = cytotoxicity of 4.5% [at 6.55 µM] (inactive)

Query COc1cc(Nc2ccc([N+](=O)[O-])cc2C(=O)O)cc2ccccc12 yields activity change, negative = cytotoxicity of inactive

Query CC1(C)OC(=O)CC(O)C2(C)C1CC(=O)C1(C)C2C(O)CC2(C)C(c3ccoc3)OC(=O)C3OC321 (stereo not drawn) yields activity change, negative = cytotoxicity of inactive

Query CCC(C)/C=C(C)/C=C/C1=CC2=C(Cl)C(=O)C(C)(OC(C)=O)C(=O)C2=CN1CCCCC(N)C(=O)O (stereo not drawn) yields activity change, negative = cytotoxicity of inactive

* * *

Test system: C33A
assay: Primary qHTS to identify gynecologic anti-cancer compounds using libraries of approved drugs and bioactive compounds (AID 1345084); further: on the % scale 0 is the no-effect control and ±100 the full control effect; nearly all actives have a fitted effect of over 55% in size
condition_description: Gynecologic cancer cell panel viability, ATPlite luminescence, 48 h; series mostly up to 57.5 µM
Results filed as inconclusive are left out. Calls of active or inactive are those of the source. Calls come from the whole dose curve; as a rule, active = well fitted cell-killing curve with a large enough effect; inconclusive = small, poorly fitted or top-dose-only effect, or effect the other way; inactive = flat fitted curve, though single readings scatter.
quantity_kind: activity change, negative = cytotoxicity

Illustrative cases are given below, each with its answer.
Query CC1(C)CC[C@]2(C(=O)O[C@@H]3O[C@H](CO[C@@H]4O[C@H](CO)[C@@H](O)[C@H](O)[C@H]4O)[C@@H](O)[C@H](O[C@@H]4O[C@H](CO)[C@@H](O)[C@H](O)[C@H]4O)[C@H]3O)CC[C@]3(C)C(=CCC4[C@@]5(C)CC[C@H](O[C@@H]6OC[C@@H](O)[C@H](O)[C@H]6O)[C@@](C)(C(=O)O)C5CC[C@]43C)[C@@H]2C1 (stereo partly specified) yields activity change, negative = cytotoxicity of 0.217% [at 11.6 µM] (inactive)

Query COc1ccc(C2(O)c3c(ccc4c3OC(C)(CCC=C(C)C)C=C4)NC(=O)C2OC)cc1 (stereo unspecified) yields activity change, negative = cytotoxicity of inactive

Query CC(=O)O[C@H]1[C@H](OC(=O)C(C)C)[C@]2(C)OC3(CC[C@]2(C)[C@H]2CCC[C@]4(CO4)[C@]12C)COC(=O)C3 (stereo partly specified) yields activity change, negative = cytotoxicity of inactive

Query C=C(C(=O)O)[C@@H]1CC[C@@]2(C)CCC[C@@](C)(O)[C@@H]2C1 yields activity change, negative = cytotoxicity of inactive

Query C/C=C1\[C@H](O[C@@H]2O[C@H](CO)[C@@H](O)[C@H](O)[C@H]2O)OC=C(C(=O)OCCc2ccc(O)cc2)[C@H]1CC(=O)OCCc1ccc(O)cc1 yields activity change, negative = cytotoxicity of inactive

Proceeding to the next compound to report its activity change, negative = cytotoxicity.
Query COc1cc(C2Oc3c(OC)cc(CCCO)cc3C2CO)ccc1O (stereo unspecified) yields activity change, negative = cytotoxicity of inactive

* * *

System: OV90
assay: Primary qHTS to identify gynecologic anti-cancer compounds using libraries of approved drugs and bioactive compounds (AID 1345084); further: on the % scale 0 is the no-effect control and ±100 the full control effect; nearly all actives have a fitted effect of over 55% in size
condition_description: Gynecologic cancer cell panel viability, ATPlite luminescence, 48 h; series mostly up to 57.5 µM
Results filed as inconclusive are left out. The source made the active and inactive calls. Calls come from the whole dose curve; as a rule, active = well fitted cell-killing curve with a large enough effect; inconclusive = small, poorly fitted or top-dose-only effect, or effect the other way; inactive = flat fitted curve, though single readings scatter.
quantity_kind: activity change, negative = cytotoxicity

Query C[C@@H]1CC[C@]2(C(=O)O[C@@H]3O[C@H](CO[C@@H]4O[C@H](CO)[C@@H](O[C@@H]5O[C@@H](C)[C@H](O)[C@@H](O)[C@H]5O)[C@H](O)[C@H]4O)[C@@H](O)[C@H](O)[C@H]3O)CC[C@]3(C)C(=CCC4[C@@]5(C)C[C@@H](O)[C@H](O)[C@@](C)(CO)C5CC[C@]43C)C2[C@H]1C (stereo not given in full) yields activity change, negative = cytotoxicity of -1.43% [at 11.6 µM] (inactive)

Query CC(C)(O)c1ccc2c(c1)C(=O)C[C@H]1[C@](C)(C(=O)O)CCC[C@]21C yields activity change, negative = cytotoxicity of inactive

Query CC12CC34CC(O)C5C(CO)(CO)CC(=O)CC5(C)C3CC1C2C4 (stereo not given) yields activity change, negative = cytotoxicity of inactive

Query COc1cc(/C=C/C(=O)O[C@@H]2C[C@@](O)(C(=O)O)C[C@@H](O)[C@@H]2O)ccc1O yields activity change, negative = cytotoxicity of inactive

Query COc1cc(C(O)C2COC(c3ccc(OC4OC(CO)C(O)C(O)C4O)c(OC)c3)C2CO)ccc1O (stereo not given) yields activity change, negative = cytotoxicity of inactive

Continuing:
Query COc1ccc(-n2[nH]c3c(cnc4ccccc43)c2=O)cc1 yields activity change, negative = cytotoxicity of inactive

Query CC(C)(CC(=O)N1CCCC1)NCC(=O)N1C[C@@H](F)C[C@H]1C#N yields activity change, negative = cytotoxicity of inactive

Query CCC(C)/C=C(C)/C=C/C(=O)C1CCC(O)C(C)(O)C1=O (stereo not given) yields activity change, negative = cytotoxicity of inactive

Query O=C(O)c1ccncc1Nc1nn(CCN2CCC(F)(F)CC2)c2ccc(F)cc12 yields activity change, negative = cytotoxicity of inactive

Query COC(=O)[C@H](Cc1ccc([N+](=O)[O-])cc1)NC(=O)c1cccc2ccccc12 yields activity change, negative = cytotoxicity of inactive

Query CC1(C(=O)O)CCCC2(C)C3CC4C5CC3(CCC12)CC45C (stereo not given) yields activity change, negative = cytotoxicity of inactive

Each recorded value in this set is attributed to PubChem BioAssay (NCATS).
